tested on: INS1(832/13); test: Cytoprotective activity in rat INS-1 832/13 cells assessed as inhibition of STZ-induced apoptosis at 20 uM incubated for 24 hrs by MTT assay relative to control; format: functional
Activity calls are given as the source filed them. No rule for the calls is given here.
Parameter call: string, one of Y for active, N for inactive

These recorded examples may help you get a feel for the data.
Q: # fetch the recorded call for CC[C@@]12C=C(COC(=O)c3ccccc3)n3c4c(c5ccccc53)CCN(CCC1)[C@H]42 here
Ans: N

Q: # fetch the recorded call for CC[C@@]12C=C(CNC(=O)C(C)C)n3c4c(c5ccccc53)CCN(CCC1)[C@H]42 here
Ans: Y

New cases:
Q: # fetch the recorded call for CCCC(=O)NCC1=C[C@]2(CC)CCCN3CCc4c(n1c1ccccc41)[C@@H]32 here
Ans: Y

Q: # fetch the recorded call for CCN(CC)C(=O)C1=C[C@]2(CC)CCCN3CCc4c(n1c1ccccc41)[C@@H]32 here
Ans: Y

Q: # fetch the recorded call for CC[C@@]12C=C(C(=O)N3CCCC3)n3c4c(c5ccccc53)CCN(CCC1)[C@H]42 here
Ans: Y

====

system: INS1(832/13); assay: Cytoprotective activity in rat INS-1 832/13 cells assessed as inhibition of STZ-induced apoptosis at 20 uM incubated for 24 hrs by MTT assay relative to control; type: functional
Calls of active or inactive are those of the source. How the calls were made is not given here.
Parameter call: string, one of active, inactive

Q: # fetch the recorded call for CC[C@@]12C=C(C(=O)N3CCCCC3)n3c4c(c5ccccc53)CCN(CCC1)[C@H]42 here
Ans: active

Q: # fetch the recorded call for CC[C@@]12C=C(C(=O)NC(C)C)n3c4c(c5ccccc53)CCN(CCC1)[C@H]42 here
Ans: active

Q: # fetch the recorded call for CC[C@@]12C=C(COC(=O)NC)n3c4c(c5ccccc53)CCN(CCC1)[C@H]42 here
Ans: active

Let us examine a further case.
Q: # fetch the recorded call for CC[C@@]12C=C(CNC(=O)NC)n3c4c(c5ccccc53)CCN(CCC1)[C@H]42 here
Ans: inactive

====

tested on: INS1(832/13); assay: Cytoprotective activity in rat INS-1 832/13 cells assessed as inhibition of STZ-induced apoptosis at 20 uM incubated for 24 hrs by MTT assay relative to control; assay type: functional
The source made the active and inactive calls. No rule for the calls is given here.
Parameter call: string, one of 1.0 for active, 0.0 for inactive

These recorded examples may help you get a feel for the data.
Q: # fetch the recorded call for CCNC(=O)OCC1=C[C@]2(CC)CCCN3CCc4c(n1c1ccccc41)[C@@H]32 here
Ans: 1.0

Q: # fetch the recorded call for CC[C@@]12C=C(C(N)=O)n3c4c(c5ccccc53)CCN(CCC1)[C@H]42 here
Ans: 0.0

Q: # fetch the recorded call for CC[C@@]12C=C(C(=O)NC)n3c4c(c5ccccc53)CCN(CCC1)[C@H]42 here
Ans: 1.0

New cases:
Q: # fetch the recorded call for CCCNC(=O)C1=C[C@]2(CC)CCCN3CCc4c(n1c1ccccc41)[C@@H]32 here
Ans: 1.0
